Data origin, for the record: PubChem BioAssay (NCI)

tested on: MDA-MB-231 breast; experiment: NCI tumour cell line growth inhibition, 48 h
readout-name: TGI

Worked set:
COc1ccccc1C1Nn2c(nc3ccccc3c2=O)N1c1ccc(C)cc1 (stereo not drawn); 18.3 µM
O=c1c(Cc2ccc(Cl)cc2)nnc2sc(-c3ccc(-c4ccc(F)c(Cl)c4)o3)nn12; > 100 µM
COc1ccc(N2C(=O)[C@H]3CC(C)c4c([nH]c5ccccc45)[C@H]3C2=O)cc1 (stereo partly drawn); > 54.8 µM

For every item in the list below, what is its measured TGI?
1. Fc1cc2[nH]ncc2c2c3c(c(-c4cn[nH]c4C(F)(F)F)nc12)C1CCC3C1 (stereo not drawn)
2. N#CC1(O)CCCCCCCCCCC1
3. NC(=O)c1csc(C2(O)COC(CO)C2O)n1 (stereo not drawn)
4. CCC(O)(Cc1ccc(OC)cc1)c1ccc(OC)cc1 (stereo not drawn)
5. c1cncc(CC2(c3cc4ccccc4[nH]3)OCCO2)c1
6. CN1C(=O)N(C)C2C1NN=c1s/c(=C\c3ccc(F)cc3)c(=O)n12 (stereo not drawn)

RESULT:
1: 3.45 µM; 2: > 100 µM; 3: > 100 µM; 4: > 100 µM; 5: > 100 µM; 6: > 100 µM

----------
system: SF-295 CNS; assay: NCI tumour cell line growth inhibition, 48 h
Would you mind telling me the reported log10 of TGI of each entry?
Annotation: log10 of TGI, µM basis.

NC(=S)NNc1c([N+](=O)[O-])cnn(-c2ccccc2)c1=O; 1.47

For every item in the list below, what is its measured log10 of TGI?
1. Cc1cc(Cl)ccc1Nc1nc(C(F)(F)F)ccc1C(=O)N/N=C/c1ccc([N+](=O)[O-])cc1
2. CNCCn1c(=O)c2cc(OC)c(OC)cc2c2ccc3cc4c(cc3c21)OCO4
3. OCCNc1ncnc2c1ncn2Cc1cccc(COc2cccc(OCc3cccc(Cn4cnc5c(NCCO)ncnc54)c3)c2)c1

RESULT:
1: 0.76; 2: -0.44; 3: 1.50

QUERY: What value of log10 of TGI has been recorded for this entry: Cc1cc(C)c(S(=O)(=O)N(CCCN)OCCCON(CCCN)S(=O)(=O)c2c(C)cc(C)cc2C)c(C)c1
RESULT: 1.33

----------
tested on: ACHN renal; assay: NCI tumour cell line growth inhibition, 48 h
readout-name: TGI

Worked set:
N#CC1(O)CCCCCCCCCCC1; > 100 µM
COc1ccc2c(c1)/C(=C\c1c(Cl)[nH]c3ccc(OC)cc13)C(=O)N2; > 100 µM
c1cncc(CC2(c3cc4ccccc4[nH]3)OCCO2)c1; > 100 µM
COC(=O)Cc1ccc2c(cnn2-c2ccccc2)c1OC; > 10 µM
Cn1c(=O)c(-c2ccccc2)c(O)c2ccccc21; > 100 µM
COc1ccc(OC2OC(CO)C(OCc3ccccc3)C(OCc3ccccc3)C2OCc2ccccc2)cc1 (centres undefined); > 100 µM

For every item in the list below, what is its measured TGI?
1. COc1ccc(/C=C\c2cc(OC)c(O[Si](C)(C)C(C)(C)C)c(OC)c2)cc1
2. CC(C)N1CC2CC(CN(C(=O)c3ccccc3)C2)C1
3. COC(=O)/C(=N\NC(C)(C)C)C(C(=O)C(=O)Nc1cc(C)ccc1C)c1nc2ccccc2[nH]c1=O (centres undefined)
4. Cc1ccc(-c2cc(-c3ccco3)c(C#N)c(=O)n2C2OC(OC(=O)c3ccccc3)C(OC(=O)c3ccccc3)C2OC(=O)c2ccccc2)cc1 (centres undefined)
5. CN(C)CCCNC(=O)c1ccc2c(c1)oc1cc3ccccc3c(=O)n12
6. CCOc1cc(/C=N\Nc2nnc(C)n2N)c(C)cc1N(CCCl)CCCl
7. CCC(CO)Nc1nc(NCc2ccccc2)c2ncn(C(C)C)c2n1 (centres undefined)

RESULT:
1: > 100 µM; 2: > 100 µM; 3: > 100 µM; 4: > 100 µM; 5: 16.1 µM; 6: > 100 µM; 7: > 100 µM

For every item in the list below, what is its measured TGI?
1. COc1cc(C(=O)Nc2cc3c(cc2Oc2cc(C)cc(C)c2)C(=O)N(C)[C@@H](CC(=O)N(C)O)C(=O)N3)c(Br)c(OC)c1OC
2. COc1ccc(-c2oc3c(OC)c(OC)c(OC)c(OC)c3c(=O)c2OC)cc1OC
3. CCOC(=O)C1(C#N)C(c2ccccc2)CC(O)(c2ccc(Cl)cc2)C(C(=O)c2ccc(Cl)cc2)C1c1ccccc1 (centres undefined)
4. CC1=NN(c2nc(N)nc(-c3sccc3N)n2)C(C)(C)C1
5. Cc1sc2nc3c4ccccc4c(NCCCN(C)C)nn3c(=O)c2c1C
6. N.N.N.N.O=C([O-])C(Cl)Cl.O=C([O-])C(Cl)Cl.[Co+3].[O-][Cl+3]([O-])([O-])[O-]
7. Cc1cc(S(=O)(=O)/N=C(/C(=C=[N-])C#N)[n+]2ccc(N(C)C)cc2)c(SCC(=O)O)cc1Cl
8. COC(=O)C1=C(C(=O)OC)SC(=CC#CC=C2SC(C(=O)OC)=C(C(=O)OC)S2)S1

RESULT:
1. 0.374 µM
2. > 100 µM
3. > 100 µM
4. > 100 µM
5. 20.4 µM
6. > 100 µM
7. > 100 µM
8. 34.6 µM

For every item in the list below, what is its measured TGI?
1. CC1(C)OCC2OC3([C@@H]4OC(C)(C)O[C@H]4CO)OC(C)(C)OC3C2O1 (some centres undefined)
2. Cc1cc2c(cc1C)N(C(=O)CCl)CCN2C(=O)CCl
3. N#CCCN(CCC#N)c1ccc(C(Sc2ccccc2)C(NC(=O)c2cc([N+](=O)[O-])ccc2Cl)C(=O)Sc2ccccc2)cc1 (centres undefined)

RESULT:
["> 100 µM", "2.08 µM", "16.3 µM"]

For every item in the list below, what is its measured TGI?
1. NC(=O)c1cc2c3ccccc3ccn2c1-c1ccccc1
2. O=[N+]([O-])c1ccc(NC(=S)N=Nc2c(O)[nH]c3ccc([N+](=O)[O-])cc23)cc1

RESULT:
1. 30.5 µM
2. 74 µM
